target: PDZRN4_1, Q6ZMN7; experiment: holdup assay; parameters: key: below the threshold = too weak to quantify, mostly under pKd 3.1 to 4; settings: plain residues with an end cap or a label only (N-terminal biotin on a linker: ahx)
Sequence (Q6ZMN7 213-318): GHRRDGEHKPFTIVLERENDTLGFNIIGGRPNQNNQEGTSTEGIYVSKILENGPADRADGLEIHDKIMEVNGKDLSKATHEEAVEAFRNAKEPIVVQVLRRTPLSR

BINDER	pKd
EKQAKGDTEF [CACYBP, Q9HB71]	below the threshold
HTHSYIETHV [CNKSR2, Q8WXI2]	below the threshold
QPRTWLQSPV [RTKN, Q9BST9]	below the threshold
